- System: VA-ES-BJ tumor spheroid viability
- protocol: Anticancer human tumor VA-ES-BJ cell line growth inhibition;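 also: spheroids exposed to compounds for seven days; percent of DMSO vehicle control viability so 100% = untreated growth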
- measurementParameters: second compound 0.00949 µM; first compound 0.949 µM; stronger effect = lower value; spheroids with HUVEC and MSC
quantity: viability, T/C (%)
Give your result in % as a bare value.

Below are worked cases with known answers.
# molecule, quantity, unitName, quantitativeReadout
measured = [
    ("CNCc1ccc(-c2cc(-c3nc(-c4ccc(S(=O)(=O)C(C)C)cc4)cnc3N)on2)cc1 + CC[C@@]1(O)C(=O)OCc2c1cc1n(c2=O)Cc2cc3c(CN(C)C)c(O)ccc3nc2-1", "viability, T/C", "%", 12.4),
    ("Cn1ncnc1[C@H]1c2n[nH]c(=O)c3cc(F)cc(c23)N[C@@H]1c1ccc(F)cc1 + CC[C@@]1(O)C(=O)OCc2c1cc1n(c2=O)Cc2cc3c(CN(C)C)c(O)ccc3nc2-1", "viability, T/C", "%", 10.6),
    ("Cc1sc2c(c1C)C(c1ccc(Cl)cc1)=NC(CC(=O)Nc1ccc(O)cc1)c1nnc(C)n1-2 (centres undefined) + CC[C@@]1(O)C(=O)OCc2c1cc1n(c2=O)Cc2cc3c(CN(C)C)c(O)ccc3nc2-1", "viability, T/C", "%", 18.4),
]

Let us move to another entry and its viability, T/C.
Lab note: need viability, T/C for O=C(c1cc(Cc2n[nH]c(=O)c3ccccc23)ccc1F)N1CCN(C(=O)C2CC2)CC1 + CC[C@@]1(O)C(=O)OCc2c1cc1n(c2=O)Cc2cc3c(CN(C)C)c(O)ccc3nc2-1 on VA-ES-BJ tumor spheroid viability, anyone have it?
56.3
